- assay.remarks: Toxicity liver stage against HepG2, at 10uM
- Assay type: cell-based
- Design: test concentration 10 uM, cell line HepG2-A16-CD81EGFP
- experimental.conditions: human, HepG2-A16-CD81EGFP cells; read-out: INHIBITION
observed.property: cytotoxicity at 10 µM

Answered cases to consult:
>>> meas_value("O=C1NCCN1C1CCN(Cc2nc(-c3ccsc3)no2)CC1")
"44.8%"
>>> meas_value("Cn1cc(C(C)(O)CNc2ccccn2)cn1 (stereo unspecified)")
"-43.6%"
>>> meas_value("CC(NC(=O)N1CCCN(C)CC1)c1ccc2c(c1)OCCO2 (stereo unspecified)")
"-6.36%"

Given the entry CCCc1nc(NCCOC)c2c(n1)c(C)nn2CC , report its measured cytotoxicity at 10 µM. 3.36%

Given the entry CCCN(CCO)C(=O)C1CCC(=O)N(CCc2ccc(Cl)cc2)C1 (stereo unspecified) , report its measured cytotoxicity at 10 µM. -12.5%

Given the entry Cc1cc(NCc2noc(C(C)C)n2)nc(-c2ccccc2)n1 , report its measured cytotoxicity at 10 µM. 11%

Given the entry CC(O)CN1CCN(C(=O)c2cc(Cl)cc3cccnc23)CC1 (stereo unspecified) , report its measured cytotoxicity at 10 µM. -1.78%

Given the entry O=C(NC1CCCN(c2ccc(OC(F)F)cc2)C1)c1ccon1 (stereo unspecified) , report its measured cytotoxicity at 10 µM. -7%

Entry source: ChEMBL document CHEMBL4513216
